Tested on: COLO 205 colon
Assay: NCI tumour cell line growth inhibition, 48 h
parameterMeasured: TGI

Guide cases for TGI, answers given:
O=C(NC(Cl)(C(F)(F)F)C(F)(F)F)c1ccc(F)cc1    > 100 µM
CN1CCC(COc2cnc(-c3cccc(Cn4nc(-c5cccc(C#N)c5)ccc4=O)c3)nc2)CC1    3.68 µM
CC[C@@H]1ON(C)[C@H]2CN(C)C(=O)[C@@H]12    > 100 µM

Qu. # input compound: CC(C)(C)c1cc(-c2cc(C(C)(C)C)[nH]n2)n[nH]1 ; wanted: its TGI
Ans. > 100 µM

Qu. Another: O=C(O)CSCc1cc2c(O)c(c1)Cc1cc(CSCC(=O)O)cc(c1O)Cc1cc(CSCC(=O)O)cc(c1O)Cc1cc(CSCC(=O)O)cc(c1O)C2
Ans. > 100 µM

---

Test system: HCT-116 colon
Experiment: NCI tumour cell line growth inhibition, 48 h
parameterMeasured: TGI

Guide cases for TGI, answers given:
O=C(O)CSCc1cc2c(O)c(c1)Cc1cc(CSCC(=O)O)cc(c1O)Cc1cc(CSCC(=O)O)cc(c1O)Cc1cc(CSCC(=O)O)cc(c1O)C2    > 100 µM
CCN(CC)Cc1cc(Nc2c3ccccc3nc3c2[nH]c2ccccc23)cc(CN(CC)CC)c1O    3.33 µM

Qu. # input compound: C=C(C)[C@@H]1CC[C@]2(COCCC#N)CC[C@]3(C)[C@H](CC[C@@H]4[C@@](C)(CCCNCCC#N)[C@H](C(=C)C)CC[C@]43C)[C@@H]12 ; wanted: its TGI
Ans. 13.8 µM

Qu. Another: O=C1NC(=S)N/C1=C\c1cc2c(=O)c3ccccc3sc2s1
Ans. > 100 µM

Qu. Another: FC(F)(F)c1ccc(Cc2nc3cc4ccccc4cc3[nH]2)cc1
Ans. > 100 µM

Qu. Another: N#CC(N)c1ccc(OCCCCCCCCCCOc2ccc(C(N)C#N)cc2)cc1 (stereo not given)
Ans. > 100 µM

Qu. Another: COC(=O)C(=O)C(C(=O)C(=O)Nc1cccc(C(C)=O)c1)c1nc2ccc([N+](=O)[O-])cc2[nH]c1=O (stereo not given)
Ans. > 100 µM

Qu. Another: c1ccc2c(c1)NCCC(=NC1CCCCC1)N2
Ans. > 100 µM

Qu. Another: O=[N+]([O-])c1ccc2nc(Cl)n[n+]([O-])c2c1
Ans. 25.8 µM

Qu. Another: CCN(CC)C(=O)Cn1c(-c2ccccc2)cc2ccccc21
Ans. > 100 µM

---

Test system: OVCAR-5 ovarian
Assay: NCI tumour cell line growth inhibition, 48 h
Measured GI50 values are reported for all entries that follow.

Guide cases for GI50, answers given:
NC1=CC(=O)c2cccnc2C1=O    2050 nM
Cc1ccc(Cl)cc1Nc1nc(C(F)(F)F)ccc1C(=O)N/N=C/c1cccnc1    3440 nM
COC1=CC(c2ccc[nH]2)=N/C1=C\c1[nH]c(C)c(CC(=O)OCc2ccccc2)c1CCC(=O)OCc1ccccc1    1260 nM
Cc1cc(Cl)cc2c(N=Nc3ccc(S(N)(=O)=O)cc3)c(O)[nH]c12    > 25000 nM

Turning now to a further record.
Qu. # input compound: c1ccc(N2N=C(c3cccc(Nc4ccncc4)c3)CC2c2ccc3c(c2)OCO3)cc1 (stereo not given) ; wanted: its GI50
Ans. 2060 nM
